Reference source: patent US12018011B2

# assayed_system: Recombinant human farnesyl transferase (FTase) (Homo sapiens, UniProt P49356)
# assay: FTase fluorescence assay (farnesylation of dansyl-GCVLS peptide)
# settings: recombinant human FTase 2.5 nM, Dansyl-GCVLS 85 nM, FPP 30 nM, 30° C., 50 minutes
measure: IC50

Some molecules with recorded IC50:
molecule	assayed_system	IC50
Cn1cncc1[C@@]1(O)c2ccc(Cl)c(c2)OCCc2cccc(c2)-c2cc(=O)n(C3CC3)c3ccc1cc23 [(S)-29]	Recombinant human farnesyl transferase (FTase) (Homo sapiens, UniProt P49356)	≤ 10 nM
Cn1cncc1[C@]1(N)c2ccc(Cl)c(c2)OCCc2cccc(c2)-c2cc(=O)n(C)c3ccc1cc23 (racemic) [(R)-27]	Recombinant human farnesyl transferase (FTase) (Homo sapiens, UniProt P49356)	> 100 nM
COc1cc2c3cc(ccc3n1)C(O)(c1cncn1C)c1ccc(C#N)c(c1)OCc1cccc-2c1 (centres unmarked) [Compound 16]	Recombinant human farnesyl transferase (FTase) (Homo sapiens, UniProt P49356)	10 to 100 nM
[2H]C([2H])([2H])n1c(=O)cc2c3cc(ccc31)[C@@H](n1ncnc1C)c1ccc(Cl)c(c1)COc1cccc-2c1 [(R)-079]	Recombinant human farnesyl transferase (FTase) (Homo sapiens, UniProt P49356)	10 to 100 nM
Cn1cncc1[C@@]1(N)c2ccc(C#N)c(c2)OCc2cccc(c2)-c2cc(=O)n(C)c3ccc1cc23 [(S)-19]	Recombinant human farnesyl transferase (FTase) (Homo sapiens, UniProt P49356)	≤ 10 nM

Kindly state the measured IC50 obtained for Cn1cnnc1C1(O)c2ccc(C#N)c(c2)OCCc2cccc(c2)-c2cc(=O)n(C)c3ccc1cc23 (centres unmarked) [Compound 38] with Recombinant human farnesyl transferase (FTase) (Homo sapiens, UniProt P49356).
≤ 10 nM

Kindly state the measured IC50 obtained for [2H]C([2H])([2H])n1c(=O)cc2c3cc(ccc31)C(N)(c1cncn1C)c1cnc(C#N)c(c1)COc1cccc-2c1 (centres unmarked) [Compound 62] with Recombinant human farnesyl transferase (FTase) (Homo sapiens, UniProt P49356).
≤ 10 nM

Kindly state the measured IC50 obtained for [2H]C([2H])([2H])n1c(=O)cc2c3cc(ccc31)[C@@H](n1cnc(C)n1)c1ccc(Cl)c(c1)COc1cccc-2c1 [(R)-080] with Recombinant human farnesyl transferase (FTase) (Homo sapiens, UniProt P49356).
10 to 100 nM

Kindly state the measured IC50 obtained for COc1cc2c3cc(cnc3c1)C(O)(c1cncn1C)c1ccc(C#N)c(c1)COc1cccc-2c1 (centres unmarked) [Compound 88] with Recombinant human farnesyl transferase (FTase) (Homo sapiens, UniProt P49356).
≤ 10 nM

Kindly state the measured IC50 obtained for [2H]C([2H])([2H])n1c(=O)cc2c3cc(ccc31)[C@@H](n1cncc1C)c1ccc(Cl)c(c1)COc1cccc-2c1 [(R)-76] with Recombinant human farnesyl transferase (FTase) (Homo sapiens, UniProt P49356).
10 to 100 nM

----------
Entries and their IC50
# assayed_system: Recombinant human farnesyl transferase (FTase) (Homo sapiens, UniProt P49356)
# assay: FTase fluorescence assay (farnesylation of dansyl-GCVLS peptide)
# settings: recombinant human FTase 2.5 nM, Dansyl-GCVLS 85 nM, FPP 30 nM, 30° C., 50 minutes

Reported IC50, compound Cn1cncc1[C@]1(N)c2ccc(Cl)c(c2)OCCc2cccc(c2)-c2cc(=O)n(C3CC3)c3ccc1cc23 (racemic) [(R)-30] : ____
> 100 nM

Reported IC50, compound Cn1cncc1[C@@]1(N)c2ccc(Cl)c(c2)CCc2cccc(c2)-c2cc(=O)n(C)c3ccc1cc23 [(S)-4] : ____
≤ 10 nM

Reported IC50, compound Cn1cncc1[C@@]1(N)c2ccc(C#N)c(c2)COc2cccc(c2)-c2cc(OC3COC3)nc3ccc1cc23 [(S)-89] : ____
≤ 10 nM

Reported IC50, compound Cn1cncc1C1(O)c2ccc(Cl)c(c2)OCc2cccc(c2)-c2cc(=O)[nH]c3ccc1cc23 (stereo not shown) [Compound 13] : ____
10 to 100 nM
